# assay.method.text: qHTS Assay for Lipid Storage Modulators in Drosophila S3 Cells
# measurement.parameters: BODIPY lipid droplet fluorescence, 18-24 h, cells fed with added oleic acid; series mostly up to 46.1 µM
The whole screen tested about 320,000 compounds, of which about 2,100 (0.66%) were called active. Inconclusive results (about 53%) are left out. Calls follow the shape of the dose curve; as a rule, active = well fitted inhibition curve with a large enough effect in the signal ratio, with a control signal flat (not every such curve was filed as active); inconclusive = small, poorly fitted or top-dose-only effect, or effect the other way, or a change in a side signal; inactive = flat fitted curve, though single readings scatter; the % refers to the signal ratio. This excerpt belongs to a sample that is enriched for actives.
Return exactly one item of active, inactive

Example cases with answers are listed next.
molecule: Cc1ccc(S(=O)(=O)N(C)C)cc1NC(=O)COC(=O)c1ccc2c(c1)OCCO2
qualitative.label: inactive

molecule: O=C(COC(=O)c1cccc(S(=O)(=O)N2CCc3ccccc32)c1)Nc1ncc(C(F)(F)F)cc1Cl
qualitative.label: inactive

molecule: C[C@@H]1C=CC(=O)O[C@@H]1c1ccc(C(F)(F)F)cc1
qualitative.label: inactive

molecule: O=C(O)CCC(=O)Nc1ccc(OCC2CCCO2)cc1 (configuration not stated)
qualitative.label: inactive

molecule: COc1ccc(N2CCN(CC(=O)Nc3cc(C)on3)CC2)cc1
qualitative.label: inactive

molecule: O=C(CCCO)c1ccc2c(c1)OCCO2
qualitative.label: active

Incoming: Could you kindly confirm the outcome this assay logged for O=C(O)CCC(=O)OCC1CCCO1 (configuration not stated) ?
Outgoing: active

Incoming: # iterate: O=C(Cc1ccccc1)c1ccc2c(c1)OCCO2
Outgoing: inactive

Incoming: # iterate: O=C(COC(=O)c1cccc(S(=O)(=O)N2CCOCC2)c1)Nc1ncc(C(F)(F)F)cc1Cl
Outgoing: active

Numbers sourced from PubChem BioAssay AID2685.
